test system: MDA-MB-231 breast; assay: NCI-60 one-dose screen, 48 h (100 = growth as untreated, 0 = no growth, -100 = all killed); settings: 10 µM unless noted
This is part of a sample that, as a whole, favours compounds with a hit. Of some 83,000 tested, about 20% had one in any assay.
Flag rule - growth less than 70% flags Criterion met; the remaining entries get Criterion not met.

Compound	Class Label
O=C(CN1CCN(c2cc(=O)n(-c3ccccc3)c3ccccc23)CC1)Nc1nc(-c2ccccc2)cs1	Criterion met
Oc1ccc(CSc2nnc(-c3ccc(Cl)cc3)n2-c2ccccc2)c2cccnc12	Criterion met
O=c1c2ccccc2nc(COc2ccccc2)n1NS(=O)(=O)c1ccc(Cl)cc1	Criterion met
CC(C)(C)n1cc(-c2ccnc(NCCCNS(=O)(=O)c3cccc(F)c3)n2)c(-c2ccc(Cl)c(O)c2)n1	Criterion not met
CCN1CCN(C(=O)[C@]23CCC(C)(C)C[C@H]2C2=CC[C@@H]4[C@@]5(C)Cc6c([nH]c7ccccc67)C(C)(C)[C@@H]5CC[C@@]4(C)[C@]2(C)CC3)CC1	Criterion not met
CCn1c2ccccc2c2cc(-n3nncc3-c3ccccc3)ccc21	Criterion met
NC(N)=Nc1ccc(Oc2cccc(NC(N)=Nc3ccc(I)cc3F)c2)cn1	Criterion met
CCCn1cnc2c(c1=N)C(c1ccc(OC)cc1)c1sc3c(C)cccc3c1O2 (configuration not stated)	Criterion met
CC(=O)C1=C(C)NC(NN)=NC1c1cccc(Cl)c1 (configuration not stated)	Criterion not met
Clc1ccc(N/N=c2/oc3ccccc3cc2-c2cc3ccccc3[nH]2)cc1	Criterion met
CN1CCN(Cc2ccc(NC(=O)c3cncc(C#Cc4cnc5ccc(NCCCO)nn45)c3)cc2C(F)(F)F)CC1	Criterion met
CC(=O)N(C)C1CCc2c(sc(NC(=O)c3ccc(C(C)(C)C)cc3)c2C(N)=O)C1 (configuration not stated)	Criterion not met
CCO/C=N/C1=C(C#N)C(c2ccc(F)cc2)c2sc3c(CC)cccc3c2O1 (configuration not stated)	Criterion met
O=c1[nH]c(Sc2sc3ccc(Cl)cc3c2CBr)nc(=S)[nH]1	Criterion met
CC1(C)CC[C@]2(CN)CC[C@]3(C)C(=CC[C@@H]4[C@@]5(C)CCCNC(C)(C)[C@@H]5CC[C@]43C)[C@H]2C1	Criterion not met
O=[N+]([O-])c1cc(/C=N/Nc2nc(N/N=C/c3ccc(Cl)c([N+](=O)[O-])c3)nc(N3CCCCC3)n2)ccc1Cl	Criterion met
C=CCN(C)S(=O)(=O)/N=C1\NC(=O)NC1=C(Cl)Cl	Criterion met
COc1cc(-c2nnc(SCc3ccc(O)c4ncccc34)n2-c2ccccc2)cc(OC)c1OC	Criterion met
O=C(Nc1ccc(Br)cc1)Nc1nc2ccc([N+](=O)[O-])cc2s1	Criterion met
CCCCc1nc(/C=N/Nc2nc(Nc3ccccc3)nc(Nc3ccc(S(N)(=O)=O)cc3)n2)c(Cl)[nH]1	Criterion met
Cn1cc(-c2nnc(N)nc2-c2c[nH]c3ccc(F)cc23)c2cc(F)ccc21	Criterion not met
COc1ccc(C2CC(c3cccc(Nc4nc(Cl)nc5cc(OC)c(OC)cc45)c3)=Nc3c(N)nc(N)nc3N2)cc1 (configuration not stated)	Criterion not met
O=C(NCCn1ccnc1)c1ccc(-c2nc3ccc4[nH]ncc4c3c3c2CCCC3)cc1	Criterion met
O=C(NCCN1CCCC1)c1ccc(-c2nc3ccc4[nH]ncc4c3c3c2CCCC3)cc1	Criterion met
C#CCNC1CCC(c2csc(C#C)n2)=C1C (configuration not stated)	Criterion met
C#C[C@]1(O)CC[C@H]2[C@@H]3CC=C4c5sc(-c6cccc(O)c6)nc5CC[C@]4(C)[C@H]3CC[C@@]21C	Criterion met
Cc1ccc(C(=O)NN2C(=O)/C(=C/C=C/c3ccco3)SC2=S)cc1	Criterion not met
NC(N)=Nc1ccc(Oc2cccc(Nc3cccc(C(F)(F)F)c3)c2)cn1	Criterion met
CNC(=O)c1cc(-c2ccc(NC(=S)Nc3cc(C(F)(F)F)cc(C(F)(F)F)c3)cc2)nc2cccnc12	Criterion not met
Cc1ccc(CSc2nc(-c3ccc(Cl)cc3)c(C#N)c(N3CCOCC3)n2)cc1	Criterion not met
C=C(C=O)[C@@H]1CC[C@]2(COC(C)=O)CC[C@]3(C)C(CC[C@@H]4[C@@]5(C)CC[C@H](OC(C)=O)C(C)(C)[C@@H]5CC[C@]43C)[C@@H]12 (some centres not stated)	Criterion met
N=c1c2cc(-c3ccccc3)oc2ncn1/N=C/c1ccc(Br)cc1	Criterion not met
Cc1cc2nc(C(Cl)Cl)nc(-c3cccs3)n2n1	Criterion met
CNC(=O)c1cc(Oc2ccc3nc(NC(=O)c4cccc(OC(F)(F)F)c4)sc3c2)ccn1	Criterion not met
C=CCOc1cccc(/C=C2\SC(=S)N(C3CC(=O)N(c4ccc(Br)cc4)C3=O)C2=O)c1 (configuration not stated)	Criterion not met
CCOC(=O)c1c(NC(=O)c2ccccc2C(F)(F)F)sc2c1CCC(=O)C2	Criterion met
